# Test system: SK-MEL-2
# experiment: NCI-60 screen (SRB), melanoma
# particulars: Homo sapiens, SK-MEL-2
measure name: IC50 (µM)
The response must be a number in µM with no trailing unit.

Inquiry: GET /values?readout=IC50&item= COc1cc(OC)c(S(N)(=O)=O)cc1C(=O)/C=C/c1ccc(C)cc1 [Compound 17c]
Reply text: 11.5

Inquiry: GET /values?readout=IC50&item= COc1cc(OC)c(S(=O)(=O)N(CCCl)CCCl)cc1C(=O)/C=C/c1cc(OC)c(OC)c(OC)c1 [Compound 18e]
Reply text: 4.65

Inquiry: GET /values?readout=IC50&item= COc1cc(OC)c(S(N)(=O)=O)cc1C(=O)C=Cc1ccccc1 [Compound 17a]
Reply text: 12.6

Inquiry: GET /values?readout=IC50&item= COc1cc(OC)c(S(N)(=O)=O)cc1C(=O)/C=C/c1ccc(Cl)cc1 [Compound 17b]
Reply text: 11.5

----------
I'd appreciate it if you could supply CC50 values for the items below.
# Test system: NCI-H460
# experiment: NCI-60 screen (SRB), non-small cell lung cancer
# particulars: Homo sapiens, NCI-H460, read-out: LC50

Inquiry: GET /values?readout=CC50&item= COc1cc(OC)c(S(N)(=O)=O)cc1C(=O)/C=C/c1ccc(Cl)cc1 [Compound 17b]
Reply text: > 100 µM

Inquiry: GET /values?readout=CC50&item= COc1cc(OC)c(S(=O)(=O)N(CCCl)CCCl)cc1C(=O)/C=C/c1cc(OC)c(OC)c(OC)c1 [Compound 18e]
Reply text: > 100 µM

Inquiry: GET /values?readout=CC50&item= COc1cc(OC)c(S(N)(=O)=O)cc1C(=O)C=Cc1ccccc1 [Compound 17a]
Reply text: 51.2 µM

Inquiry: GET /values?readout=CC50&item= COc1cc(OC)c(S(N)(=O)=O)cc1C(=O)/C=C/c1ccc(C)cc1 [Compound 17c]
Reply text: 44.3 µM

----------
I'd appreciate it if you could supply IC50 values for the items below.
# Test system: SNB-75
# experiment: NCI-60 screen (SRB), CNS cancer
# particulars: Homo sapiens, SNB-75
The response must be a number in µM with no trailing unit.

Inquiry: GET /values?readout=IC50&item= COc1cc(OC)c(S(N)(=O)=O)cc1C(=O)/C=C/c1ccc(C)cc1 [Compound 17c]
Reply text: 1.84

Inquiry: GET /values?readout=IC50&item= COc1cc(OC)c(S(N)(=O)=O)cc1C(=O)/C=C/c1ccc(Cl)cc1 [Compound 17b]
Reply text: 1.5

Inquiry: GET /values?readout=IC50&item= COc1cc(OC)c(S(N)(=O)=O)cc1C(=O)C=Cc1ccccc1 [Compound 17a]
Reply text: 2.08

Inquiry: GET /values?readout=IC50&item= COc1cc(OC)c(S(=O)(=O)N(CCCl)CCCl)cc1C(=O)/C=C/c1cc(OC)c(OC)c(OC)c1 [Compound 18e]
Reply text: 8.53

----------
I'd appreciate it if you could supply melting point values for the items below.

Inquiry: GET /values?readout=melting point&item= COc1cc(OC)c(S(=O)(=O)NNC(=O)c2ccncc2)cc1C(=O)/C=C/c1ccc(Cl)cc1 [Compound 20b]
Reply text: 196 to 198 °C

Inquiry: GET /values?readout=melting point&item= COc1ccc(C(=O)/C=C/c2ccc(Cl)cc2)cc1S(=O)(=O)Nc1cccnc1 [Compound 16b]
Reply text: 256 to 258 °C

Inquiry: GET /values?readout=melting point&item= COc1ccc(/C=C/C(=O)c2cc(S(N)(=O)=O)c(OC)cc2OC)cc1 [Compound 17d]
Reply text: 215 to 218 °C

Inquiry: GET /values?readout=melting point&item= COc1ccc(C2=NN(C(N)=S)C(c3ccc(Cl)cc3)C2)cc1S(=O)(=O)Nc1cccnc1 (stereo not shown)
Reply text: 236 to 238 °C
